Source: patent US9845340B2

# subject_of_test: cMet-Fc fusion protein (Homo sapiens)
# protocol_description: Protein phage ELISA: peptide-displaying phage binding to soluble cMet-Fc versus TRAIL-Fc
# test_settings: phage isolate; cMet-Fc vs. TRAIL-Fc
# Method: Protein phage ELISAs using peptide-displaying phage isolates from the various selection campaigns were performed to determine specificity of the peptides for cMet versus an unrelated Fc-fusion protein (TRAIL-Fc). […] The plates were incubated for 2 hours at room temperature and washed with PBST. cMet-binding peptide-displaying phage were detected using an HRP-conjugated anti-M13 antibody.
Response key: True means Protein ELISA >= 4 fold over background; False means Protein ELISA < 4 fold over background.

# seq, answer_label
rows = [
    ("GDPDECQLNRETFEVWCPWHDP (Synthetically generated cMet-binding peptide sequence) [SEQ ID NO: 401]", "True"),
    ("AGQAVCEWGPFWCQMQGT (Synthetically generated cMet-binding peptide sequence) [SEQ ID NO: 031]", "False"),
    ("AGLPKCSGPPWFSCYYGGT (Synthetically generated cMet-binding peptide sequence) [SEQ ID NO: 066]", "True"),
    ("GSTKVCHEKWNQLFCHNQAP (Synthetically generated cMet-binding peptide sequence) [SEQ ID NO: 368]", "True"),
    ("AQMGHHWDVQWDYKLFHVARGD (Synthetically generated cMet-binding peptide sequence) [SEQ ID NO: 473]", "False"),
]

----------
# subject_of_test: cMet-Fc fusion protein (Homo sapiens)
# protocol_description: Protein phage ELISA: peptide-displaying phage binding to soluble cMet-Fc versus TRAIL-Fc
# test_settings: phage isolate; cMet-Fc vs. TRAIL-Fc

# seq, Protein ELISA
records = [
    ("GSTMSCWRWGRDAYSCNQMAP (Synthetically generated cMet-binding peptide sequence) [SEQ ID NO: 372]", "4.6 fold over background"),
    ("AGYFHCSGSPWFQCDYYGT (Synthetically generated cMet-binding peptide sequence) [SEQ ID NO: 081]", "9.1 fold over background"),
    ("GSFILCWWTFCDTNAP (Synthetically generated cMet-binding peptide sequence) [SEQ ID NO: 007]", "3.4 fold over background"),
    ("AGNWICNLSEMRCYPKGT (Synthetically generated cMet-binding peptide sequence) [SEQ ID NO: 013]", "3.9 fold over background"),
]

----------
# subject_of_test: cMet-Fc fusion protein (Homo sapiens, UniProt P08581)
# Sequence (P08581 25-307 limits assumed): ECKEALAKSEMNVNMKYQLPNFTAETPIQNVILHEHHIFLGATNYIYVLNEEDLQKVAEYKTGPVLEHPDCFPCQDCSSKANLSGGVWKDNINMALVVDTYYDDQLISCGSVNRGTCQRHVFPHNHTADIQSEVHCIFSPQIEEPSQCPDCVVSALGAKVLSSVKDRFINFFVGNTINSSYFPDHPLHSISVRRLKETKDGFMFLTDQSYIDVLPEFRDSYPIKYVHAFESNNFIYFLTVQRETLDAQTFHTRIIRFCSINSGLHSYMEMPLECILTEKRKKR
# Sequence (P08581 with tags, fused parts or gaps limits assumed): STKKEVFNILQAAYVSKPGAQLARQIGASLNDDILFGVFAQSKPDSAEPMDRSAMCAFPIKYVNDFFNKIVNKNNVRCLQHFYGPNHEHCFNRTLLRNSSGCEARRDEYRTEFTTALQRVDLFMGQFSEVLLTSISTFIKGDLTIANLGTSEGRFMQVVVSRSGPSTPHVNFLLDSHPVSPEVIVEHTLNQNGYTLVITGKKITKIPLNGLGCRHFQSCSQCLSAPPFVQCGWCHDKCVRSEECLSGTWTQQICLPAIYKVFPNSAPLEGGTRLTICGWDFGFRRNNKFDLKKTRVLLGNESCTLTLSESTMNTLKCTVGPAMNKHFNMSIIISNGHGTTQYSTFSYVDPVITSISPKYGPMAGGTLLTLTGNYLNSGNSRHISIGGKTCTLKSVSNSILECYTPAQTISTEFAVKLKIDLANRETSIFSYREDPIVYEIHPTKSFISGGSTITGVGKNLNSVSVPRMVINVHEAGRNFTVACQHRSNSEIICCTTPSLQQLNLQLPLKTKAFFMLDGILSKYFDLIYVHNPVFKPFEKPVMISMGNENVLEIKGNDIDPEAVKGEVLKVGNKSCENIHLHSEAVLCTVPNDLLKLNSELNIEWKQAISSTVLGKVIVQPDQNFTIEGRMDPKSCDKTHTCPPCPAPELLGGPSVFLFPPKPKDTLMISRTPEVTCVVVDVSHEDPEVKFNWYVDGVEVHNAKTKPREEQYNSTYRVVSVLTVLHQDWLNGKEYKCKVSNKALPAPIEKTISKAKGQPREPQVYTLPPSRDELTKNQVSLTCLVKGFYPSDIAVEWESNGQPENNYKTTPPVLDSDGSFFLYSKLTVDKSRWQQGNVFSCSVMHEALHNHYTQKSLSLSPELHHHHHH
# protocol_description: Protein phage ELISA: peptide-displaying phage binding to soluble cMet-Fc versus TRAIL-Fc
# test_settings: phage isolate; cMet-Fc vs. TRAIL-Fc
Response key: MET means Protein ELISA >= 10 fold over background; NOT MET means Protein ELISA < 10 fold over background.

# seq, answer_label
data = [
    ("AGYYGCKGPPTFECQWMGT (Synthetically generated cMet-binding peptide sequence) [SEQ ID NO: 049]", "MET"),
    ("GDLLVCKFDDKFWTETCEWADP (Synthetically generated cMet-binding peptide sequence) [SEQ ID NO: 392]", "MET"),
    ("AQKTWFLEADLFQMFQEVTWQF (Synthetically generated cMet-binding peptide sequence) [SEQ ID NO: 490]", "NOT MET"),
    ("AGDGWCMAWPEICEWLGT (Synthetically generated cMet-binding peptide sequence) [SEQ ID NO: 014]", "NOT MET"),
    ("AGYWDCKGPPHFFCEWHGT (Synthetically generated cMet-binding peptide sequence) [SEQ ID NO: 080]", "NOT MET"),
    ("AGDFICQGPPSFVCTNIGT (Synthetically generated cMet-binding peptide sequence) [SEQ ID NO: 097]", "NOT MET"),
]

----------
# subject_of_test: cMet-Fc fusion protein (Homo sapiens, UniProt P08581)
# protocol_description: Protein phage ELISA: peptide-displaying phage binding to soluble cMet-Fc versus TRAIL-Fc
# test_settings: phage isolate; cMet-Fc vs. TRAIL-Fc
Listed here: items and their measured Protein ELISA.

# seq, unit_of_measurement, Protein ELISA
rows = [
    ("GDGFLCRWENGWCEFWDP (Synthetically generated cMet-binding peptide sequence) [SEQ ID NO: 047]", "fold over background", 4.7),
    ("AGKTVCQKWESVCSGMGT (Synthetically generated cMet-binding peptide sequence) [SEQ ID NO: 038]", "fold over background", 3.1),
    ("GSSHCNQMITPWQNCGMRAP (Synthetically generated cMet-binding peptide sequence) [SEQ ID NO: 374]", "fold over background", 3.3),
    ("AGQYLCTQAALGCPEWGT (Synthetically generated cMet-binding peptide sequence) [SEQ ID NO: 029]", "fold over background", 4.3),
    ("AGTVYCSWESSECWWVGT (Synthetically generated cMet-binding peptide sequence) [SEQ ID NO: 019]", "fold over background", 3.9),
    ("GSGDPCSPGPSINGHCSVMAP (Synthetically generated cMet-binding peptide sequence) [SEQ ID NO: 382]", "fold over background", 4.5),
]

----------
Listed here: items and their measured WC ELISA.
# subject_of_test: 3T3 cells that over-express human cMet (Homo sapiens, UniProt P08581)
# Construct: expressed in transfected cells; host or cells: 3T3 cells
# Sequence (P08581 25-1390): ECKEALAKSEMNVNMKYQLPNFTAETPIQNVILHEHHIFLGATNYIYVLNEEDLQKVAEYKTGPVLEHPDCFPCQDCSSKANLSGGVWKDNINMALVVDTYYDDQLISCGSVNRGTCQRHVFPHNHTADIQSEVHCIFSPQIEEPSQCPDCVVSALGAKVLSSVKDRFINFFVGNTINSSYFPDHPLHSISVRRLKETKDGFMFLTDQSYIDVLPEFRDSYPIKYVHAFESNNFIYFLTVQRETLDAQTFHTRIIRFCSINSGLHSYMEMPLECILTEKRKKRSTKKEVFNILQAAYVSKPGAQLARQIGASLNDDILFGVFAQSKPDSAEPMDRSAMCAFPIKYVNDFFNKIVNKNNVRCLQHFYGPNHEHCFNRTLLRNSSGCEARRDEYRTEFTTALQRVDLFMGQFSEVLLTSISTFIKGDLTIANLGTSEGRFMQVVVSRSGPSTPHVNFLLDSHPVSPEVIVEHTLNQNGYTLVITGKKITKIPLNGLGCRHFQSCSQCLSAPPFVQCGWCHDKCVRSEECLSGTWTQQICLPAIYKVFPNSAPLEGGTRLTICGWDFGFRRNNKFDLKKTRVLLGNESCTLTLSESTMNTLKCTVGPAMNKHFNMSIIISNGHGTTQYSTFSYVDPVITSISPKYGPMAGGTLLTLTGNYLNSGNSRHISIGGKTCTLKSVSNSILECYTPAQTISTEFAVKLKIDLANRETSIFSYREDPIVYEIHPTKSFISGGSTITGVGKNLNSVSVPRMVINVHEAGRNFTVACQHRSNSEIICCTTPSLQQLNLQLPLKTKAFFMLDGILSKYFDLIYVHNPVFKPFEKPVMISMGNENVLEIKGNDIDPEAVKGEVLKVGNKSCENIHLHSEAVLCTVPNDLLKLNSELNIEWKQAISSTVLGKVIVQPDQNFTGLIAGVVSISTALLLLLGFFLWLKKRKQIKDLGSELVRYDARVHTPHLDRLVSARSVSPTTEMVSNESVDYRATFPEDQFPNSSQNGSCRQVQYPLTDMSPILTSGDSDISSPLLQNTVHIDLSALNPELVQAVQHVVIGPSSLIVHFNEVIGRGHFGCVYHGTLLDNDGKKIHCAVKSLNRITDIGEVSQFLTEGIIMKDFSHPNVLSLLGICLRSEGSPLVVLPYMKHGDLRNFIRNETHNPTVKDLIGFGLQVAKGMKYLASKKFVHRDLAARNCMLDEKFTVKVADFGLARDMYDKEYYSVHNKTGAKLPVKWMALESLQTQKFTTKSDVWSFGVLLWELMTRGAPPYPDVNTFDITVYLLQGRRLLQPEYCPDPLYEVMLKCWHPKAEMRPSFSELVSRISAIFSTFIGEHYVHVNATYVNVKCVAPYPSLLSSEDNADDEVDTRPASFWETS
# protocol_description: Whole cell ELISA of peptide-displaying phage
# Assay type: cell-based
# test_settings: phage isolate; 3T3 cells expressing human cMet vs. non-expressing 3T3 cells

# seq, unit_of_measurement, WC ELISA
data = [
    ("AGQMWCAEKNSKCYQWGT (Synthetically generated cMet-binding peptide sequence) [SEQ ID NO: 030]", "fold over background", 1.27),
    ("GSSHCNQMITPWQNCGMRAP (Synthetically generated cMet-binding peptide sequence) [SEQ ID NO: 374]", "fold over background", 1.37),
    ("AGMTLCAGPPTFECYEVGT (Synthetically generated cMet-binding peptide sequence) [SEQ ID NO: 092]", "fold over background", 1.23),
    ("AGVLQCIGFEWFCDIWGT (Synthetically generated cMet-binding peptide sequence) [SEQ ID NO: 022]", "fold over background", 1.40),
    ("GSMLMCELWWCRFLAP (Synthetically generated cMet-binding peptide sequence) [SEQ ID NO: 004]", "fold over background", 1.27),
    ("AGYWHCKGPPHFACEFHGT (Synthetically generated cMet-binding peptide sequence) [SEQ ID NO: 077]", "fold over background", 1.40),
    ("GSSHLCNPEFCHFTAP (Synthetically generated cMet-binding peptide sequence) [SEQ ID NO: 003]", "fold over background", 1.30),
]

----------
Listed here: items and their measured Protein ELISA.
# subject_of_test: cMet-Fc fusion protein (Homo sapiens)
# protocol_description: Protein phage ELISA: peptide-displaying phage binding to soluble cMet-Fc versus TRAIL-Fc
# test_settings: phage isolate; cMet-Fc vs. TRAIL-Fc

# seq, subject_of_test, Protein ELISA, fold over background
data = [
    ("AGSTDCRGHPTFECWGWGT (Synthetically generated cMet-binding peptide sequence) [SEQ ID NO: 086]", "cMet-Fc fusion protein (Homo sapiens)", 5.2),
    ("AGPWKCTGPPTFSCIQFGT (Synthetically generated cMet-binding peptide sequence) [SEQ ID NO: 090]", "cMet-Fc fusion protein (Homo sapiens)", 19.5),
    ("AGQFYCSGPPTFQCIMIGT (Synthetically generated cMet-binding peptide sequence) [SEQ ID NO: 089]", "cMet-Fc fusion protein (Homo sapiens)", 12.4),
    ("AGPYSCHSESHDCKLMGT (Synthetically generated cMet-binding peptide sequence) [SEQ ID NO: 032]", "cMet-Fc fusion protein (Homo sapiens)", 3.2),
    ("GSDMNCTVLAQDQIFCFREAP (Synthetically generated cMet-binding peptide sequence) [SEQ ID NO: 386]", "cMet-Fc fusion protein (Homo sapiens)", 3.0),
    ("AGHTICQHKALGCPANGT (Synthetically generated cMet-binding peptide sequence) [SEQ ID NO: 041]", "cMet-Fc fusion protein (Homo sapiens)", 3.1),
    ("GDLLGCGYQEKGGEYKCRFNDP (Synthetically generated cMet-binding peptide sequence) [SEQ ID NO: 395]", "cMet-Fc fusion protein (Homo sapiens)", 13.5),
    ("AGAWNCEYPTFICEWQGA (Synthetically generated cMet-binding peptide sequence) [SEQ ID NO: 012]", "cMet-Fc fusion protein (Homo sapiens)", 4.5),
    ("AGLYLCDLSIMYCFFQGT (Synthetically generated cMet-binding peptide sequence) [SEQ ID NO: 015]", "cMet-Fc fusion protein (Homo sapiens)", 4.3),
    ("GDYYQCQFSKDMYSERCWPYDP (Synthetically generated cMet-binding peptide sequence) [SEQ ID NO: 397]", "cMet-Fc fusion protein (Homo sapiens)", 7.0),
    ("GSSTICPGTACVDHAP (Synthetically generated cMet-binding peptide sequence) [SEQ ID NO: 008]", "cMet-Fc fusion protein (Homo sapiens)", 3.2),
    ("AGPLFCFEWPSLCHWGGT (Synthetically generated cMet-binding peptide sequence) [SEQ ID NO: 033]", "cMet-Fc fusion protein (Homo sapiens)", 3.8),
    ("GSMNMCDTTDEISPTCHPSAP (Synthetically generated cMet-binding peptide sequence) [SEQ ID NO: 378]", "cMet-Fc fusion protein (Homo sapiens)", 3.6),
]
